# test_description: Pharmacokinetics in male Wistar rats (i.v. and p.o.)
# Type: in vivo
# experimental_conditions: rat, po; male Wistar rats, 10 mg/Kg p.o., plasma
readout_label: AUC(0-inf) (ng·h/mL)
Write the value in ng·h/mL as a bare number.

q: What does the record list as AUC(0-inf) for "Cc1cc(SCc2sc(-c3ccc(C(F)(F)F)cc3)nc2C)ccc1OCC(=O)O" ?
a: 35100

* * *

# target_system: Human PPARδ LBD (Homo sapiens, UniProt Q03181)
# Construct: (PPARδ amino acid 128 to C-terminus); expressed in transfected cells; host or cells: CV-1 cells
# Sequence (Q03181 128-441 limits assumed): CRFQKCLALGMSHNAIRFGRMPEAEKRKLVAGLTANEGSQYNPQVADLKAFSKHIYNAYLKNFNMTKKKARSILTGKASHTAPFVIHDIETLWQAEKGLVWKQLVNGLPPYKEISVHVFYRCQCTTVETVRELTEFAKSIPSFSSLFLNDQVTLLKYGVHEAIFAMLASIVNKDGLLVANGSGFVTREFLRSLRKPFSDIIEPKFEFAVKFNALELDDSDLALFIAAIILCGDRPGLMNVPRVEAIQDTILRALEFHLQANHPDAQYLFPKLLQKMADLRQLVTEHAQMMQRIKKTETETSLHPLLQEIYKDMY
# test_description: PPARδ activity screen (GAL4-PPARδ LBD luciferase transactivation in CV-1 cells)
# Format: cell-based
# experimental_conditions: EC50 nM, Table 1; CV-1 cells, GAL4-PPARδ LBD luciferase reporter, compound 24 h
Label key: Met means EC50 under 300 nM; Not met means EC50 of 300 nM or more.

Use the examples below as a reference point.
Cc1ccc(-c2ccc(C(=O)N(Cc3ccccc3OCCCCCC(=O)O)C3CC3)cc2)cc1 [compound 77]    Not met
CCC(C)N(Cc1ccccc1OCCCCCC(=O)O)C(=O)c1ccc(-c2ccco2)cc1 (stereo not drawn) [compound 37]    Met
COc1ccccc1-c1ccc(C(=O)N(Cc2ccccc2OCCCCCC(=O)O)C2CC2)cc1 [compound 78]    Not met
CC(C)N(Cc1ccccc1OCCCCCC(=O)O)C(=O)c1ccc(-c2ccccc2)cc1 [compound 1]    Met
CCc1ccccc1-c1ccc(C(=O)N(Cc2ccccc2OCCCCCC(=O)O)C2CC2)cc1 [compound 84]    Not met

q: Field: below-cutoff. Rule: recorded EC50 strictly less than 300 nM. Subject: Cc1cccc(-c2ccc(C(=O)N(Cc3ccccc3OCCCCCC(=O)O)C3CC3)cc2)c1 [compound 76]
a: Not met

q: Follow-up item: CC(C)N(Cc1ccccc1OCCCCCC(=O)O)C(=O)c1ccc(-c2ccccc2)cc1 [compound 57]
a: Met

q: Follow-up item: CCC(C)N(Cc1ccccc1OCCCCCC(=O)O)C(=O)c1ccc(-c2cn[nH]c2)cc1 (stereo not drawn) [compound 36]
a: Not met

* * *

Collected AUC(0-inf) values appear next to each entry.
# test_description: Pharmacokinetics in male CD-1 mice (i.v. and p.o.)
# Assay type: in vivo
# experimental_conditions: male, mouse, iv; CD-1 mice, 3 mg/Kg i.v., plasma
// unit must come after the numeric part

O=C(O)CCCCCOc1ccccc1CN(C(=O)c1ccc(-c2ccco2)cc1)C1CC1    256 ng·h/mL

Turning now to a further compound:
q: What does the record list as AUC(0-inf) for "Cc1cc(SCc2sc(-c3ccc(C(F)(F)F)cc3)nc2C)ccc1OCC(=O)O" ?
a: 11300 ng·h/mL
